Assay: Assay for the Determination of Metabolic Stability with Human Hepatocytes
Assay type: in vitro ADME
Details: scaled with well stirred model
Property Name: CL (predicted human hepatic in vivo blood clearance) (mL/min/kg)

Known results for molecules:
>>> endpoint_value("CS(=O)(=O)c1cc(C#N)ccc1C1C2=C(CCCC2=O)N(c2cccc(C(F)(F)F)c2)C(=O)N1CCCO (stereo not drawn)")
3
>>> endpoint_value("CN1C(=O)N(c2ccnc(C(F)(F)F)c2)C2=C(C(=O)CCC2)C1c1ccc(C#N)cc1S(C)(=O)=O (stereo not drawn)")
0
>>> endpoint_value("CC(C)NC(=O)N1C(=O)N(c2cccc(C(F)(F)F)c2)C2=C(C(=O)CCC2)[C@H]1c1ccc(C#N)cc1S(C)(=O)=O")
0

1: CC(C)(O)CNC(=O)N1C(=O)N(c2cccc(C(F)(F)F)c2)C2=C(C(=O)CCC2)C1c1ccc(C#N)cc1 (stereo not drawn)
2: CCS(=O)(=O)c1cc(C#N)ccc1[C@H]1NC(=O)N(c2cccc(C(F)(F)F)c2)C2=C1C(=O)CCC2 (single isomer, unassigned) [Example 54A]
3: CN1C(=O)N(c2cccc(C(F)(F)F)c2)C2=C(C(=O)CCC2)[C@H]1c1ccc(C#N)cc1S(C)(=O)=O
**Q:** Give the ascending ranking of the items by reported CL (predicted human hepatic in vivo blood clearance). # the answer lists labels in the order requested
**A:** 1, 2, 3

* * *

Target: neutrophil elastase in human plasma (Homo sapiens (Human))
Sequence (P08246 30-267): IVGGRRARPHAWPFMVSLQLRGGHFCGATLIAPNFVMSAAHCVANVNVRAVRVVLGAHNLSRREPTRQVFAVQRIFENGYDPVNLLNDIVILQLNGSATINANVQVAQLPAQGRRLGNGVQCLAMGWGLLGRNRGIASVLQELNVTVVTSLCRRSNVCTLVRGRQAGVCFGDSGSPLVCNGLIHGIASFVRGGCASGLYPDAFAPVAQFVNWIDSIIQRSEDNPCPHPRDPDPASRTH
Assay: Assay for the Determination of Neutrophil Elastase Inhibitory Activity in Human Plasma
Format: biochemical
Conditions: neutrophil elastase enriched human plasma (zymosan-stimulated blood)
Property Name: EC50 (nM)

Known results for molecules:
>>> endpoint_value("CS(=O)(=O)c1cc(C#N)ccc1[C@H]1NC(=O)N(c2cccc(C(F)(F)F)c2)C2=C1C(=O)CCC2 (single isomer, unassigned) [Example 18A]")
3
>>> endpoint_value("CC(C)(O)CNC(=O)N1C(=O)N(c2cccc(C(F)(F)F)c2)C2=C(C(=O)CCC2)C1c1ccc(C#N)cc1 (centres unmarked)")
15
>>> endpoint_value("CS(=O)(=O)c1cc(C#N)ccc1C1C2=C(CCCC2=O)N(c2cccc(C(F)(F)F)c2)C(=O)N1CCCO (centres unmarked)")
3

A: CS(=O)(=O)c1cc(C#N)ccc1[C@@H]1C2=C(CCCC2=O)N(c2cccc(C(F)(F)F)c2)C(=O)N1C(=O)NC1CCOCC1
B: CS(=O)(=O)c1cc(C#N)ccc1[C@H]1NC(=O)N(c2cccc(C(F)F)c2)C2=C1C(=O)CCC2 (single isomer, unassigned) [Example 19A]
**Q:** Determine, for A and B , which has the greater value of EC50. Pick one and reply with its label.
**A:** B

* * *

Test: Assay for the Determination of Metabolic Stability with Human Hepatocytes
Format: in vitro ADME
Details: scaled with well stirred model
Property Name: CL (predicted human hepatic in vivo blood clearance) (mL/min/kg)

>>> endpoint_value("CS(=O)(=O)c1cc(C#N)ccc1[C@@H]1C2=C(CCCC2=O)N(c2cccc(C(F)(F)F)c2)C(=O)N1S(C)(=O)=O")
0
>>> endpoint_value("CS(=O)(=O)c1cc(C#N)ccc1[C@@H]1C2=C(CCCC2=O)N(c2cccc(C(F)(F)F)c2)C(=O)N1C(=O)NCC(F)F")
0
>>> endpoint_value("CS(=O)(=O)c1cc(C#N)ccc1[C@H]1NC(=O)N(c2cccc(C(F)(F)F)c2)C2=C1C(=O)CCC2 (single isomer, unassigned) [Example 18A]")
0
